Target: human TRPA1 receptor (Homo sapiens, UniProt O75762)
Sequence (O75762 whole entry): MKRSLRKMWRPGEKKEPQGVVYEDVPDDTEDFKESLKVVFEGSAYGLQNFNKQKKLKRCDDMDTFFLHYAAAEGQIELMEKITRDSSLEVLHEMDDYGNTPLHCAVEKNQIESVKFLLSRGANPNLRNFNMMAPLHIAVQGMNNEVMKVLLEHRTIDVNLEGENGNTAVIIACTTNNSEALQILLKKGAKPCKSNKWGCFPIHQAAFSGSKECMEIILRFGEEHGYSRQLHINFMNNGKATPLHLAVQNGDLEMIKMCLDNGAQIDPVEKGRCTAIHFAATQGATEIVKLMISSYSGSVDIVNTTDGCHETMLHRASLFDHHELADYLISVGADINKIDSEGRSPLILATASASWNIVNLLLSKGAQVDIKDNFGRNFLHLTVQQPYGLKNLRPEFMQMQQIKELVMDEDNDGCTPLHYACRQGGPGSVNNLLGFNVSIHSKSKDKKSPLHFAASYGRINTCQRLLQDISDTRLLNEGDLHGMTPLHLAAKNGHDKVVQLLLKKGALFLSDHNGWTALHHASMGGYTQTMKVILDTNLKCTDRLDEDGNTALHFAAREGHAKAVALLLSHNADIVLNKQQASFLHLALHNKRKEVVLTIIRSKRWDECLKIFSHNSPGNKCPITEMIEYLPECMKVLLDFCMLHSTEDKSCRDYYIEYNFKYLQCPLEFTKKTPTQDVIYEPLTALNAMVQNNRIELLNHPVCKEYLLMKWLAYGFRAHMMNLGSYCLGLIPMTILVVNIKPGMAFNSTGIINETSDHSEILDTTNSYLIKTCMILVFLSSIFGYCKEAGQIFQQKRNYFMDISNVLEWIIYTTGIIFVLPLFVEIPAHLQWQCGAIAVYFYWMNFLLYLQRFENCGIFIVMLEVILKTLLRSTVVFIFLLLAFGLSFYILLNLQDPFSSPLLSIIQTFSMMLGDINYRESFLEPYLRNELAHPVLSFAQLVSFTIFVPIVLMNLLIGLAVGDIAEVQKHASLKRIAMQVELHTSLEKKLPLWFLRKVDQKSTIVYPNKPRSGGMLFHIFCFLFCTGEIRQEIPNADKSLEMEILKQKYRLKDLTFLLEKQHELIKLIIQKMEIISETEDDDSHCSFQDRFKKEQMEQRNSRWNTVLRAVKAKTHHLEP
Test: Inhibition of AITC induced cellular uptake of radioactive calcium in human TRPA1 expressing CHO cells
Settings: read-out: hTRPA1 IC50 values
measured-endpoint: pIC50
Schema: pIC50 number; meaning minus log10 of the concentration expressed in molar units.

Task: Report measured pIC50 on human TRPA1 receptor (Homo sapiens, UniProt O75762); entry: CC(C)C(N)C(=O)OCn1c(-c2ccc(F)c(C(F)(F)F)c2F)csc1=NC(=O)Cc1csc2c1c(=O)n(C)c(=O)n2C (stereo not shown)
Output: 7.66

Ref: patent US20160158236A1
